The entries below are paired with their reported viability at 28.5 h, 10 µM.
# ASSAY METHOD TEXT: in vitro
# TEST CONDITIONS: human, hela cells, % viability
Dear colleague, please return just the value in %, with no unit written.

Some compounds with known viability at 28.5 h, 10 µM results, for comparison:
>>> print(df.to_string())
                                   compound                test_readout  number
0  Cc1nnc(Sc2nc(CN3CCOCC3)nc3scc(-c4cccs4)c23)n1C  viability at 28.5 h, 10 µM     103
1  CCCCNc1cc(N2CCOC(Cn3cc(C)cn3)C2)nc(N)n1 (stereo not drawn)  viability at 28.5 h, 10 µM    53.3
2  CC(Sc1nnc(-c2ccc(Cl)cc2)n1CC(=O)O)C(=O)Nc1ccnn1C(C)C (stereo not drawn)  viability at 28.5 h, 10 µM    96.9
3  O=C(O)c1[nH]c2ccccc2c1NS(=O)(=O)c1ccc(Br)cc1  viability at 28.5 h, 10 µM    61.1
4  Cc1ccc(S(=O)(=O)CC(=O)N2CCC3(CCN(C(=O)Cc4c[nH]c5ccccc45)C3)C2)cc1 (stereo not drawn)  viability at 28.5 h, 10 µM      84

The record that follows has no viability at 28.5 h, 10 µM shown yet.
INPUT: Would you kindly share the measured viability at 28.5 h, 10 µM for `O=C(CN1CCN(C2CCCC2)C(=O)C1)N1CCCc2ccccc21` ?
OUTPUT: 81.7
